# procedure text: Clinical pharmacokinetics parameters of mFOLFOX6 active substances from published data
# Format: in vivo, Humans
# reported conditions: human, in vivo, intravenous, 400 mg/m2; 5-fluorouracil bolus, sequence number 2; calculated to a dose of 400 mg/m^2 assuming linear kinetics
experimental endpoint: Cmax
Write the figure, then the unit, nothing else.

Entry under test: O=c1[nH]cc(F)c(=O)[nH]1 [5-Fluorouracil, 5-fluorouracil] . Its Cmax was 273 µM
